test system: SK-MEL-28 melanoma; test: NCI tumour cell line growth inhibition, 48 h
measure: TGI

Completed entries (count: 5):
INSERT INTO assay_data (smiles_representation, value) VALUES
  ('O=C(N/N=C/c1ccc(Cl)cc1)c1[nH]c2ccc(Cl)cc2c1-c1ccccc1', '> 68.1 µM'),
  ('N#C/C(=C1/c2cc([N+](=O)[O-])ccc2-c2c1cc([N+](=O)[O-])cc2[N+](=O)[O-])N1CCCCC1', '> 100 µM'),
  ('C=C(C)[C@@H]1CC[C@]2(CO)CC[C@]3(C)[C@H](CC[C@@H]4[C@@](C)(CCCN)[C@H](C(=C)C)CC[C@]43C)[C@@H]12', '3.14 µM'),
  ('N=c1ccc2nc3c(cc(N)c4ccccc43)oc-2c1', '2.54 µM'),
  ('COc1cc2c(cc1OC)C(=O)/C(=C/c1ccc(O)cc1)CC2', '> 10 µM');

Query: Give SK-MEL-28 melanoma TGI for Cn1ccc2c(c1=O)C(=O)OC2(C)C
Reply: > 100 µM

Query: Give SK-MEL-28 melanoma TGI for COC(=O)c1ccc(C(=O)OC)c2nc3cc(C)ccc3nc12
Reply: > 100 µM

Query: Give SK-MEL-28 melanoma TGI for NNC(=O)Cn1ccnn1
Reply: > 100 µM

Query: Give SK-MEL-28 melanoma TGI for COc1cc(S(=O)(=O)Nc2ccc(-c3csc(/N=C\c4ccccc4)n3)cc2)ccc1Cl
Reply: > 100 µM

Query: Give SK-MEL-28 melanoma TGI for C=CCCCCn1c2ccccc2c2c(C)c3cnccc3c(C)c21
Reply: 40.8 µM

----------
system: MALME-3M melanoma; assay: NCI tumour cell line growth inhibition, 48 h
// reported TGI per item

Completed entries (count: 6):
INSERT INTO results (compound, test_system, value) VALUES
  ('CCC[CH2][Sn]1([CH2]CCC)[O]C(=O)c2ccc(N)cc2[O]1', 'MALME-3M melanoma', '1.18 µM'),
  ('COC(=O)c1cc(C)ccc1/C=C1\Cc2c(C)cc(C)cc2C1=O', 'MALME-3M melanoma', '> 100 µM'),
  ('CCn1c(=O)c2c3ccc(OC(C)=O)cc3[nH]c2c2ccc(OC(C)=O)cc21', 'MALME-3M melanoma', '> 100 µM'),
  ('COc1cc2oc(=O)cc(C)c2c(OC)c1OC(C)=O', 'MALME-3M melanoma', '> 100 µM'),
  ('COC(=O)[C@@]1(C)CCC[C@]2(C(=O)O)C3Cc4occc4[C@H](C)[C@@H]3CCC21 (some centres not stated)', 'MALME-3M melanoma', '> 100 µM'),
  ('Clc1ccc(-c2c(C3=NCCN3)nnn2-c2ccccc2)cc1', 'MALME-3M melanoma', '> 100 µM');

Query: Quick one: TGI of CS(=O)(=O)NNS(=O)(=O)c1ccc(Cl)cc1 ?
Reply: > 100 µM

Query: Quick one: TGI of CC(C)(C)C(=O)N1CCN(C=O)C1=S ?
Reply: > 100 µM

Query: Quick one: TGI of COc1cccc(C23CCCC(C2)N(C)CC3OC(=O)c2ccccc2)c1OC (configuration not stated) ?
Reply: 48.1 µM

----------
tested on: ACHN renal; assay: NCI tumour cell line growth inhibition, 48 h
// reported TGI per item
Your answer is read as µM, so omit the unit and give the number.

INSERT INTO assay_data (smiles_representation, measure, readout_units, value) VALUES
  ('C[C@]12CC[C@H]3[C@@H](CC[C@]4(O)C[C@@H](O)CC[C@]34CO)[C@@]1(O)CC[C@@H]2C1=CC(=O)OC1', 'TGI', 'µM', 7.08);

Query: Quick one: TGI of Cn1cc(C2=C(c3cn(C)c4cc(N)ccc34)C(=O)NC2=O)c2ccccc21 ?
Reply: 12.1
